Measured values drawn from ChEMBL document CHEMBL1944547 for this set.

# half-life at 1 µM per record follows
- Assay overview: in vitro
- Condition parameters: CD-1, mouse, liver microsomes
- Description: Half life in CD-1 mouse liver microsomes at 1 uM by LC-MS/MS analysis
Hi! Could you send only the number? It should be in min, unit omitted.

// known answers, use as guide
O=C(CCCC(F)(F)F)N1CCC(c2nc(-c3nccs3)no2)CC1 81
O=C(CCC(F)(F)F)N1CCC(c2nc(-c3cccs3)no2)CC1 5
O=C(CCC(F)(F)F)N1CCC(c2nc(-c3nccs3)no2)CC1 34

Inquiry: Identify measured half-life at 1 µM corresponding to `COc1ccc2nc(-c3noc(C4CCN(C(=O)CCC(F)(F)F)CC4)n3)sc2c1`
Reply text: 6
